Entries below carry reported pIC50 on Coagulation factor X (Homo sapiens, UniProt P00742).
Sequence (P00742 41-179 limits assumed): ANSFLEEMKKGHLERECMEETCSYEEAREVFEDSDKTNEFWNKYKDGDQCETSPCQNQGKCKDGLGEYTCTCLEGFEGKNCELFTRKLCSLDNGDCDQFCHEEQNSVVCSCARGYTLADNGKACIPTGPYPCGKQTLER
Sequence (P00742 235-488 limits assumed): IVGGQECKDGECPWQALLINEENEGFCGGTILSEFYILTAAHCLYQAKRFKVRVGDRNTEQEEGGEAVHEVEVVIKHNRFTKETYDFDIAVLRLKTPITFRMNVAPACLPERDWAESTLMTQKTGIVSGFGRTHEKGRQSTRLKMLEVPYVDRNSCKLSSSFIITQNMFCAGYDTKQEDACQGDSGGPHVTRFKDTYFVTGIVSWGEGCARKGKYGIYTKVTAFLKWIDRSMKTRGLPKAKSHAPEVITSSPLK
Please report pIC50 as the negative decimal logarithm of the molar concentration, giving only the number.

In the examples that follow, each entry is paired with its recorded pIC50.
1) N=C(N)NCCC[C@@H](NC(=O)CN1CCN(C(=O)Cc2ccccc2)CC1=O)C(=O)c1nccs1: 7.68
2) N=C(N)NCCC[C@@H](NC(=O)CN1CCN(S(=O)(=O)c2ccccc2)CC1=O)C(=O)c1nccs1: 8.10
3) Cc1c(S(=O)(=O)N2CCN(CC(=O)NC(CCCNC(=N)N)C(=O)c3nccs3)C(=O)C2)sc2ccc(Cl)cc12 (centres undefined): 9.29

# context switch: different molecule, same pIC50
Provide value of pIC50 for this record tested with Coagulation factor X (Homo sapiens, UniProt P00742): N=C(N)NCCCC(NC(=O)CN1CCN(S(=O)(=O)c2ccc(N)cc2)CC1=O)C(=O)c1nccs1 (centres undefined)
8.22

----------
Entries below carry reported pIC50 on Prothrombin (Homo sapiens).
Please report pIC50 as the negative decimal logarithm of the molar concentration, giving only the number.

1) COc1ccc(S(=O)(=O)N2CCN(CC(=O)NC(CCCNC(=N)N)C(=O)c3nccs3)C(=O)C2)cc1 (stereo not drawn): 6.10

# context switch: different compound, same pIC50
Param item = N=C(N)NCCC[C@@H](NC(=O)Cn1cccc(NS(=O)(=O)Cc2ccccc2)c1=O)C(=O)c1nccs1 ; retrieve measured pIC50.
8.10
